Origin of the recorded values: PubChem BioAssay

Test: 384-well plate pilot, post-Golgi transport modulator project, inhibition of yeast transport mutant growth (AID 636)
Settings: absorbance 615 nm, about 18 h, stronger effect = higher value
Items are presented alongside their recorded inhibition.

- COMPOUND: "O=C(NCc1ccccc1)c1cc(-c2ccco2)on1"
  inhibition [%]: -0.13
- COMPOUND: "CCOC(=O)c1c(-c2ccc(C)o2)csc1NC(=O)CN1CCN(CC)CC1"
  inhibition [%]: -7.53
- COMPOUND: "CCCN(CCC)C(=O)C(CCC(=O)O)NC(=O)c1ccccc1 (stereo not drawn)"
  inhibition [%]: -5.32
- COMPOUND: "CN(C(=O)Cn1c(=O)n(CCCCC(=O)NC2CCCC2)c(=O)c2ccccc21)C1CCCCC1"
  inhibition [%]: -2.73
- COMPOUND: "CCC(C)(C(=O)NC1CCCC1)N(Cc1cccs1)C(=O)Cc1cccs1 (stereo not drawn)"
  inhibition [%]: -7.53
- COMPOUND: "CC1(C)CC(=O)c2sc(NS(C)(=O)=O)nc2C1"
  inhibition [%]: -6.16
- COMPOUND: "CCCC(=O)Nc1c2c(nn1-c1ccc(OC)cc1)CS(=O)C2 (stereo not drawn)"
  inhibition [%]: -2.73
- COMPOUND: "COc1ccc(OCC(=O)N2CCN(C(=O)COc3ccc(Br)cc3)CC2)cc1"
  inhibition [%]: -2.67
- COMPOUND: "COc1ccc(N2CCN(C(=O)CSc3ncnc4c3cnn4-c3ccccc3C)CC2)cc1"
  inhibition [%]: 0.53
- COMPOUND: "CCn1c(=O)c2cc(S(=O)(=O)NCc3ccccc3)ccc2n(CC)c1=O"
  inhibition [%]: -1.3
- COMPOUND: "CC1(C)C2CCC1(C)C(OC(=O)CSc1nc(N)cc(=O)[nH]1)C2 (stereo not drawn)"
  inhibition [%]: -2.53
- COMPOUND: "CC(C)(C)NC(=O)C(c1ccco1)N(C(=O)Cn1nnc(-c2ccc(F)cc2)n1)c1ccccc1 (stereo not drawn)"
  inhibition [%]: -0.92
- COMPOUND: "CCOc1ccccc1Nc1nc2ccccc2[nH]1"
  inhibition [%]: 0.91
- COMPOUND: "Cc1cc(C)nc(NC2=NCC(=O)N2c2ccc(Cl)cc2)n1"
  inhibition [%]: -7.03
- COMPOUND: "COc1ccc(CSCCN)cc1Cl"
  inhibition [%]: -7.33
- COMPOUND: "CCN(CC)CCN1C(=O)C(O)=C(C(=O)c2cccs2)C1c1ccc(C)o1 (stereo not drawn)"
  inhibition [%]: -4.13
- COMPOUND: "O=C(O)CC1Sc2nc3ccccc3n2C1=O (stereo not drawn)"
  inhibition [%]: -6.08
- COMPOUND: "COc1cc(C(=O)N2CCCC(c3nc(-c4cccs4)no3)C2)cc(OC)c1OC (stereo not drawn)"
  inhibition [%]: -1.05
- COMPOUND: "O=c1nc(N2CCCC2)nc(Nc2ccccc2)[nH]1"
  inhibition [%]: -2.47
- COMPOUND: "Cc1ccccc1C(=O)NC1CCN(Cc2nnnn2CCc2ccccc2)CC1"
  inhibition [%]: -5.19
- COMPOUND: "CC(=O)Nc1ccc(NC(=O)C(C)Oc2ccccc2F)cc1 (stereo not drawn)"
  inhibition [%]: -5.97
- COMPOUND: "O=C(Nc1ccc(N2CCOCC2)cc1)C1CC1"
  inhibition [%]: -5.33
- COMPOUND: "Cn1c(=O)c2c(ncn2CC(O)CO)n(C)c1=O (stereo not drawn)"
  inhibition [%]: -5.45

* * *

Assay: reversal of MRP1-mediated doxorubicin resistance, pilot screen, H69AR cells, doxorubicin co-treatment (AID 601)
Details: H69AR cells + 2 uM doxorubicin, CellTiter-Glo, 72 h; measured here: viability with 2 uM doxorubicin; at 10 µM; stronger effect = lower value
Entries and their measured viability follow.

- COMPOUND: "CC(C)(Oc1ccc(Cl)cc1)C(=O)NCc1ccncc1"
  viability / %: 88.7
- COMPOUND: "Cc1ccc(O)c(C(=O)c2cc(C#N)c(=O)n(CC3CCCO3)c2)c1 (stereo not drawn)"
  viability / %: 92.6
- COMPOUND: "Cc1ccccc1-n1c(SCc2c(C)noc2C)nnc1-c1ccncc1"
  viability / %: 79.1
- COMPOUND: "Clc1ccc2c(c1)[C@H]1OCC[C@H]1[C@@H](c1ccco1)N2"
  viability / %: 85.6
- COMPOUND: "CC(C)(C)c1ccc(C(O)CCCN2CCC(C(O)(c3ccccc3)c3ccccc3)CC2)cc1 (stereo not drawn)"
  viability / %: 1.16
- COMPOUND: "O=C(NCc1cccnc1)c1ccc(Cl)c(Cl)c1"
  viability / %: 87.7
- COMPOUND: "CCN(CC)S(=O)(=O)c1ccc2[nH]cc(C(=O)NCCC3=CCCCC3)c(=O)c2c1"
  viability / %: 44.3
- COMPOUND: "Cc1cccc(-n2ncc3c(N)ncnc32)c1"
  viability / %: 80.6
- COMPOUND: "COC(=O)C1C(=O)C2=C(CC1C)NC(=O)CC2c1ccccc1 (stereo not drawn)"
  viability / %: 87.9
- COMPOUND: "CCOc1ccc2oc(-c3ccccc3)c(C(=O)N3CCN(CCO)CC3)c2c1"
  viability / %: 69.6
- COMPOUND: "CC(C)CN(CC(C)C)C(=O)C12CCC(C)(C(=O)C1)C2(C)C (stereo not drawn)"
  viability / %: 84.4
- COMPOUND: "c1ccc(Cn2nnnc2C(c2cccs2)N2CCSCC2)cc1 (stereo not drawn)"
  viability / %: 84.2
- COMPOUND: "Nc1nc(CSc2nc3ccccc3[nH]2)nc(N2CCOCC2)n1"
  viability / %: 91.9
- COMPOUND: "O=C(Cc1nc2ccccc2s1)c1ccc(O)cc1O"
  viability / %: 86
- COMPOUND: "COc1cc(C(=O)Nc2nc(-c3cccs3)cs2)cc(OC)c1OC"
  viability / %: 37.2
- COMPOUND: "CCOC(=O)CC(=O)CSc1nc(-c2cccnc2)ccc1C#N"
  viability / %: 92.4
- COMPOUND: "COc1ccc(-n2cnnc2SCCC#N)cc1"
  viability / %: 89.5
- COMPOUND: "O=C(Cn1nnc2c(cnn2-c2ccc(F)cc2)c1=O)c1ccccc1F"
  viability / %: 65.1
- COMPOUND: "COc1ccc(C2/C(=C(/O)c3ccccc3)C(=O)C(=O)N2c2ncccn2)cc1OC (stereo not drawn)"
  viability / %: 99.1
- COMPOUND: "CN1/C(=C\\C(=O)Nc2cccnc2)c2ccccc2CC1(C)C"
  viability / %: 90.6
- COMPOUND: "CCc1ccccc1NC(=O)C(CC)Sc1nc2cc3c(cc2c(=O)n1Cc1ccco1)OCO3 (stereo not drawn)"
  viability / %: 15.1
- COMPOUND: "CCCNC(=O)NS(=O)(=O)c1ccc(Cl)cc1"
  viability / %: 87.1
- COMPOUND: "O=C(CCSc1nc(-c2ccco2)cc(C(F)(F)F)n1)NCCc1ccccc1"
  viability / %: 94.4

* * *

Assay: 384-well plate pilot, post-Golgi transport modulator project, inhibition of yeast transport mutant growth (AID 636)
Details: absorbance 615 nm, about 18 h, stronger effect = higher value
The reader will find reported inhibition values listed item by item below.

- COMPOUND: "O=C(Nc1nnc(C2CCCCC2)s1)c1cccs1"
  UNITS LABEL: "%"
  inhibition: 0
- COMPOUND: "Cc1cc(O)c(NC(=O)c2ccc(Br)o2)cc1C"
  UNITS LABEL: "%"
  inhibition: -6.08
- COMPOUND: "Cc1cccc(C(=O)O)c1NC(=O)c1ccc(F)cc1"
  UNITS LABEL: "%"
  inhibition: 0.27
- COMPOUND: "COc1ccc(CN(C)CC(=O)c2c(N)n(Cc3ccccc3)c(=O)n(C)c2=O)c(OC)c1"
  UNITS LABEL: "%"
  inhibition: -3.25
- COMPOUND: "COC(=O)Cn1cc(C(=O)c2cccs2)c2ccccc21"
  UNITS LABEL: "%"
  inhibition: -2.34
- COMPOUND: "O=S(=O)(c1ccc(OCC(O)CN2CCc3ccccc3C2)cc1)N1CCOCC1 (stereo unspecified)"
  UNITS LABEL: "%"
  inhibition: -1.71

* * *

The compounds listed here are annotated with their inhibition.
Test: growth suppression of yeast trafficking mutant, preliminary HTS, modulators of trafficking downstream of Golgi apparatus project, 1536-format plate, OD 615 nm (AID 637)
Conditions: yeast transport mutant growth, absorbance 615 nm, 18 h; stronger effect = higher value

- COMPOUND: "Cn1cccc1C(=O)NC(=O)CSc1nnc(C2CC2)n1-c1ccccc1"
  UNITS LABEL: "%"
  inhibition: -0.63
- COMPOUND: "CCOC(=O)C(C(C)=O)c1nc(C)nc2c1nnn2Cc1ccccc1Cl (stereo unspecified)"
  UNITS LABEL: "%"
  inhibition: -2.18
- COMPOUND: "Cc1cc(C(=O)Nc2nc3c(s2)CCCC3)cs1"
  UNITS LABEL: "%"
  inhibition: -7.58
- COMPOUND: "COc1cccc(C(=O)NC2=NCCS2)c1"
  UNITS LABEL: "%"
  inhibition: 0.32
- COMPOUND: "C=CCn1c(COc2cccc(C)c2)nnc1SCC(=O)NC(=O)NCc1ccco1"
  UNITS LABEL: "%"
  inhibition: -0.48
- COMPOUND: "O=C1C2CC=C(Cl)CC2C(=O)N1CNc1ccccn1 (stereo unspecified)"
  UNITS LABEL: "%"
  inhibition: 5.65
